B1: CDC34 (parent)
chain: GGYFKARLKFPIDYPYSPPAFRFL

variants of: B1; assay: protein stability index of a GFP-peptide fusion (GPS, HEK-293T) (PSI 1-6); higher = more stable; conditions: c terminus: a fixed tail appended;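 note: lentivirally expressed fusions sorted by FACS into six bins by GFP to DsRed ratio, PSI derived from sequencing read proportions per bin multiplied by bin number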
Listed variants paired with reported protein stability index
# respond with the number and nothing more

Use the examples below as a reference point.
# lookup: protein stability index of GGYFKARLKFPIDYGYSPPAFRFL [P15G]
2.62

Can you look up the measured protein stability index of GGYFKARLKFPIDIPYSPPAFRFL [Y14I] for me?
2.16

Value lookup for protein stability index; key = GGYFKARLSFPIDYPYSPPAFRFL [K9S]
3.19

Recorded protein stability index of GGYMKARLKFPIDYPYSPPAFRFL [F4M] , please.
2.51

Sample GGYFKARLKFPIDYPYSPLAFRFL [P19L] — what was its protein stability index?
3.41

Tell me the measured protein stability index of GGYFKARLKFPIDYPYSPCAFRFL [P19C] , please.
3.03

Continuing:
Item under review: GAYFKARLKFPIDYPYSPPAFRFL [G2A] . Reported protein stability index?
3.13

Recorded protein stability index of GGYFKARLKFPYDYPYSPPAFRFL [I12Y] , please.
3.17
